# Test system: SN12C
# assayInfo: NCI tumour cell line growth inhibition, 48 h
The source made the active and inactive calls. No stated cut-off is given here; in the data, active = GI50 up to about 1.1 µM and inactive = higher.
Outcomes: active, inactive

* O=C(CCCn1ccnc1[N+](=O)[O-])NCCn1cncc1[N+](=O)[O-] | inactive
* CNc1ccc2c(c1)Cc1ccccc1-2 | inactive
* COC1CC(C)(NC(C)=O)C2OC(c3ccccc3)OCC2O1 (stereo not drawn) | inactive
* CCN1c2cc(Br)cc3[nH]c(=O)n(c23)CCC1C (stereo not drawn) | inactive
* O=CN1CCN(CC(O)CN2CCCCC2)CC1 (stereo not drawn) | inactive
* Cc1cc(-c2nc3ccc(F)cc3s2)ccc1NC(=O)C(N)CCCCN (stereo not drawn) | inactive
* O=C1/C(=C/c2ccco2)N=C(c2ccccc2)N1c1ccc(S(=O)(=O)Nc2nccs2)cc1 | inactive
* CCN(CC)/[N+]([O-])=N/OC | inactive
* CN(CCCNC(=O)c1nn(-c2ccccc2)c2c1Cc1ccccc1-2)CCCNC(=O)c1nn(-c2ccccc2)c2c1Cc1ccccc1-2 | inactive
* O=C(Nc1cccc(O)c1)C(=O)C(C(=O)c1ccccc1F)C1OC(=O)c2ccccc21 (stereo not drawn) | inactive
* COC1C(OC(=O)/C=C/C=C/C=C/C=C/C(=O)O)CCC2(CO2)C1C1(C)OC1CC=C(C)C (stereo not drawn) | inactive
* COc1ccc2c(c1)nc1n2C(c2c(F)cccc2F)SC1 (stereo not drawn) | inactive
* C=C1C(=O)OC2CC(C)C3(O)CCC(=O)C3(C)CC12 (stereo not drawn) | inactive
* CC1=C(N2CC2)C(=O)C(C)=C(N2CC2)C1=O | active
* CCc1n[nH]c(=O)n1-c1ccc2ccccc2c1 | inactive
* CCC(C)Cn1c(C)nc2c1C(=O)c1ccccc1C2=O (stereo not drawn) | inactive
* COC(=O)/C=C(C)/C=C/C1OC(C)OCC1O (stereo not drawn) | inactive
* O=C(Cl)C1=C(c2ccccc2)C1c1ccccc1 (stereo not drawn) | inactive
* Cc1nnc2sc(-c3ccc(N)cc3)nn12 | inactive
* CC(C)NC(=O)OCc1c(COC(=O)NC(C)C)c(-c2ccc[n+](COC(=O)C(C)C)c2)n2c1CCC2 | inactive
* CSc1cc(-c2cc3ccccc3o2)oc(=O)c1C#N | inactive
* Cc1cc2c(C)n(Cc3ccc(Cl)cc3Cl)nc2c(C#N)c1C | inactive
* CSc1c(C#N)c(N)nc2c(/N=N\c3ccc(Br)cc3)c(N)nn12 | inactive
* CCOC(=O)[C@H](C)OC(=O)[C@@](C)(NC(=O)c1ccccc1C(=O)OC)[C@@H]1NC=C(C(=O)OC)CS1 | inactive
* CC1=NC=C(O)c2ccccc2O1 | inactive
* O=C1NC2(CCN(CCCC3(c4ccc(F)cc4)OCCO3)CC2)Oc2ccccc21 | inactive
* COC(=O)/C(=N/NC(C)(C)C)C(C(=O)C=C(C)C)C(=O)C(=O)Nc1ccc(Cl)cc1C (stereo not drawn) | inactive
* Clc1ccc(/C=C/c2nc(Cl)c(-c3ccc(Cl)cc3)c(Cl)n2)cc1 | inactive
* Cc1csc2nc(-c3ccncc3)cn12 | inactive
* CN(C)CCCN1c2ccc(O)cc2Sc2ccc(Cl)cc21 [7-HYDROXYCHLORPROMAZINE] | inactive
* CC1CCCOc2ccc(cc2)/C=N\c2ccc(cc2)CCc2ccc(cc2)/N=C\c2ccc(cc2)OCCC1 | inactive
* Oc1ccc2c3c1OC1C(=NN=C4CCC5(O)C6Cc7ccc(O)c8c7C5(CCN6CC5CC5)C4O8)CCC4(O)C(C2)N(CC2CC2)CCC314 (stereo not drawn) | inactive
* O=C1c2ccccc2N2OC3(N4CCOCC4)CCCC3C12c1ccccc1 (stereo not drawn) | inactive
* CC[C@@]1(O)C(=O)OCc2c1cc1n(c2=O)Cc2cc3c(NC(=O)CN)cccc3nc2-1 | active
* CCCCCCCCCCCNC=O | inactive
* CC[C@]12C=CCN3CC[C@@]4(c5cc(Br)c(OC)cc5N(C)[C@H]4[C@@](O)(C(=O)NC(Cc4c[nH]c5ccccc45)C(=O)OC)[C@@H]1O)[C@@H]32 (stereo partly drawn) | inactive
* CC(C)=CCC/C(C)=C/CCC1(C)C=Cc2c(c3ccccc3oc2=O)O1 (stereo not drawn) | inactive
* Brc1ccc2ns[s+]c2c1 | inactive
* OC1[C@H](O)CN(OCc2ccccc2)C[C@@H]1O (stereo partly drawn) | inactive
* CN1CCCc2nc3ccccc3n2C1 | inactive
* O=C(/N=C1/OC(CN2CCOCC2)CN1C(=O)Nc1ccccc1)Nc1ccccc1 (stereo not drawn) | inactive
* CC(C)(OCc1ccccc1)c1ccccc1P(c1ccccc1)c1ccccc1 | inactive
* Oc1ccc2ccccc2c1/N=N/c1cccc2ccccc12 | inactive
